Just for reference, PubChem BioAssay (NCI) is where these values come from.

Examples of compounds with documented TGI follow.
# Tested on: COLO 205 colon
# Method summary: NCI tumour cell line growth inhibition, 48 h

| Compound | Test system | TGI |
| --- | --- | --- |
| COc1cc2c(cc1O)C1Cc3ccc(OC)c(O)c3C(C2)N1C (stereo unspecified) | COLO 205 colon | > 100 µM |
| CN(C)c1ccc(C2SCC(=O)N2NS(=O)(=O)c2cccc(C(=O)O)c2)cc1 (stereo unspecified) | COLO 205 colon | > 100 µM |
| O=C(NCCCCCCNCc1cccc2ccccc12)Nc1cccc2ccccc12 | COLO 205 colon | > 100 µM |
| COCCOc1cnc2ccn([C@H](C)c3nnc4c(F)cc(-c5cnn(C)c5)cn34)c(=O)c2c1 | COLO 205 colon | > 100 µM |
| CC(C)S(=O)(=O)c1ccccc1Nc1nc(Nc2cccc(NC(=O)CN)c2)ncc1Cl | COLO 205 colon | 0.223 µM |
| CN(O)C(=O)c1cccc(Cl)c1 | COLO 205 colon | > 100 µM |
| c1cc2nnnn2nc1N1CCCC1 | COLO 205 colon | > 100 µM |
| N#Cc1nc(-c2cccs2)oc1N | COLO 205 colon | > 100 µM |
| O=C(Nc1ccc(-c2ccccc2)cc1)C1CCN(S(=O)(=O)c2ccccc2Cl)CC1 | COLO 205 colon | > 100 µM |
| Cc1ccc(C2(O)CC(c3ccc([N+](=O)[O-])o3)=NN2C(=O)COc2ccc(Cl)cc2)cc1 (stereo unspecified) | COLO 205 colon | 15.3 µM |
| COc1ccc2[nH]c3c4c(ccc3c2c1)C(=O)C=CC4=O | COLO 205 colon | 15.6 µM |
